Test system: A673/TR/shEF
Assay: cell viability (LOESS-normalised, relative to median of negative controls) (log2 ratio); higher = more viable cells (less compound effect), active = hit call of the paper (over 3 MAD below the median)
Details: 0.25 µM; library screen: screen1; EWS-FLI1 expression: high (no doxycycline); treatment time: 72 h
Hit rate of the full screen: of about 3,200 compounds, about 300 (9.4%) showed activity. Many of the other results were omitted from the sample, so actives are more common in it than they were.
Reply using exactly one outcome from YES (active), NO (inactive)

Reference set, count: 6
- molecule: "COc1cc2c(cc1OC)[C@@H]1C(=O)c3ccc4oc(C(C)C)cc4c3O[C@@H]1CO2"
  group: "NO"
- molecule: "COc1cc2c(cc1OC)-c1c(oc3c4c(ccc3c1=O)OC(C(C)C)C4)CO2 (centres undefined)"
  group: "NO"
- molecule: "O=c1ccc2cc(O[C@@H]3OC(CO)[C@@H](O)C(O)C3O)c(O)cc2o1 (some centres undefined)"
  group: "NO"
- molecule: "CCNc1nc(Cl)nc(NCC)n1"
  group: "NO"
- molecule: "CC(=O)Oc1c2c(c(CC=C(C)C)c3c1C(=O)C1=C[C@@H]4CC5C(C)(C)OC(C/C=C(\\C)C(=O)O)(C4=O)[C@@]15O3)OC(C)(CCC=C(C)C)C=C2 (some centres undefined)"
  group: "NO"
- molecule: "CCC(N)C(O)c1ccc(O)c(O)c1 (centres undefined)"
  group: "NO"

Would you mind telling me which call this test gave `COc1cc2c(cc1OC)[C@H]1C(=O)c3ccc4c(c3O[C@H]1CO2)C[C@@H](C(C)C)O4` ?
YES

Can you look up the reported call for COC(=O)/C(C)=C\CC12OC(C)(C)C3CC(C=C4C(=O)c5c(OC)c6c(c(CC=C(C)C)c5OC431)OC(C)(CCC=C(C)C)C=C6)C2=O (centres undefined) for me?
NO

Name the outcome recorded for `CC(C)=CCC[C@]1(C)C=Cc2c(O)c3c(c(CC=C(C)C)c2O1)O[C@]12C(=C[C@@H]4C[C@H]1C(C)(C)O[C@@]2(C/C=C(/C)C(=O)O)C4=O)C3=O` in the assay.
NO

----------
Tested on: A673/TR/shEF
Assay: cell viability (LOESS-normalised, relative to median of negative controls) (log2 ratio); higher = more viable cells (less compound effect), active = hit call of the paper (over 3 MAD below the median)
Conditions: 0.25 µM; library screen: screen1; EWS-FLI1 expression: low (doxycycline-induced shRNA knockdown); treatment time: 72 h
Among all 3,200 compounds or so, about 300 (9.4%) showed activity. What follows is part of a selection rich in actives, with near analogues and random picks from the rest.
Recorded cell viability (log2) by entry
Enter a number only.

State, in one line, measured cell viability (log2) of `CO[C@@H]1C[C@@H](C[C@H]2CC[C@H](C)[C@H]([C@@H](C)C(=O)O)O2)O[C@]2(O[C@](C)([C@H]3CC[C@@](C)([C@@H]4O[C@@H]([C@H]5O[C@@](O)(CO)[C@H](C)C[C@@H]5C)C[C@@H]4C)O3)C[C@H]2C)[C@@H]1C`
0.147

Return reported cell viability (log2). Input molecule: `CC[C@@]1([C@H]2O[C@H]([C@H]3O[C@@](O)(CO)[C@H](C)C[C@@H]3C)C[C@H]2C)CC[C@H]([C@@]2(C)CC[C@]3(C[C@H](O)[C@@H](C)[C@@H]([C@H](C)[C@H](OC)[C@@H](C)C(=O)O)O3)O2)O1`
0.12

----------
Tested on: A673/TR/shEF
Assay: cell viability (LOESS-normalised, relative to median of negative controls) (log2 ratio); higher = more viable cells (less compound effect), active = hit call of the paper (over 3 MAD below the median)
Conditions: 0.025 µM; library screen: screen2; EWS-FLI1 expression: low (doxycycline-induced shRNA knockdown); treatment time: 72 h
Among all 3,200 compounds or so, about 300 (9.4%) showed activity. This excerpt belongs to a sample that is enriched for actives.
testReadout: cell viability (log2)
Please give only the number in your answer, with no unit.

- molecule: "O=C(O)CCCc1ccc(N(CCCl)CCCl)cc1"
  cell viability (log2): 0.0711
- molecule: "CCOC(=O)NC1=C(N2CC2)C(=O)C(NC(=O)OCC)=C(N2CC2)C1=O"
  cell viability (log2): -0.0126
- molecule: "CC[C@@]1(O)C(=O)OCc2c1cc1n(c2=O)Cc2cc3ccccc3nc2-1"
  cell viability (log2): 0.049
- molecule: "C[C@@H]1C[C@@H]([C@H](O)CC2CC(=O)NC(=O)C2)C(=O)[C@@H](C)C1"
  cell viability (log2): 0.119
- molecule: "O=P1(N(CCCl)CCCl)NCCCO1 (stereo unspecified)"
  cell viability (log2): 0.0824

Identify measured cell viability (log2) corresponding to `NC(=O)c1cc([N+](=O)[O-])cc([N+](=O)[O-])c1`
0.069

----------
// cell viability (log2) lookup, one value per entry
System: A673/TR/shEF
Assay: cell viability (LOESS-normalised, relative to median of negative controls) (log2 ratio); higher = more viable cells (less compound effect), active = hit call of the paper (over 3 MAD below the median)
Settings: 2.5 µM; library screen: screen1; EWS-FLI1 expression: low (doxycycline-induced shRNA knockdown); treatment time: 72 h
Out of some 3,200 compounds screened, about 300 (9.4%) showed activity. This is one part of a sample in which actives are shown more often than they occur.
Enter a number only.

Report cell viability (log2) for CC(=O)OC1CC(OC2C(O)CC(OC3C(O)CC(OC4CCC5(C)C(CCC6C5CC(O)C5(C)C(C7=CC(=O)OC7)CCC65O)C4)OC3C)OC2C)OC(C)C1OC1OC(CO)C(O)C(O)C1O (stereo not given)
-3.01

Report cell viability (log2) for `C[C@@H]1CC[C@H]2[C@@H](C)C(=O)O[C@@H]3OC4(C)CC[C@@H]1[C@]32OO4`
-0.14

Query cell viability (log2) for CC(=O)Oc1c2c(c(CC=C(C)C)c3c1C(=O)C1=C[C@@H]4CC5C(C)(C)OC(C/C=C(\C)C(=O)O)(C4=O)[C@@]15O3)OC(C)(CCC=C(C)C)C=C2 (stereo not given in full)
0.269

Retrieve cell viability (log2) measured for `COc1cc2c3cc1Oc1cc(ccc1O)C[C@H]1c4c(cc(OC)c(O)c4Oc4ccc(cc4)C[C@@H]3N(C)CC2)CCN1C` and print it.
0.276

Given `CC[C@H]1CN2CCc3cc(OC)c(OC)cc3[C@@H]2C[C@@H]1C[C@H]1NCCc2cc(OC)c(OC)cc21` , respond with its cell viability (log2).
-0.152

Identify the reported cell viability (log2) for the following entry. CN1C2C[C@H](OC(=O)[C@H](CO)c3ccccc3)CC1[C@@H](O)C2 (stereo not given in full)
0.0715

Hello, please tell me recorded cell viability (log2) for this one: `C[C@]12CC[C@H](O)C[C@H]1CC[C@@H]1[C@@H]2CC[C@]2(C)[C@@H](C3=CC(=O)OC3)[C@@H](O)C[C@]12O`
0.0999

Determine its reported cell viability (log2): `C[C@H]1O[C@@H](O[C@H]2[C@@H](O)C[C@H](O[C@H]3[C@@H](O)C[C@H](O[C@H]4CC[C@@]5(C)[C@H](CC[C@@H]6[C@@H]5CC[C@]5(C)[C@@H](C7=CC(=O)OC7)[C@@H](O)C[C@]65O)C4)O[C@@H]3C)O[C@@H]2C)C[C@H](O)[C@@H]1O`
-1.76

----------
System: A673/TR/shEF
Test: cell viability (LOESS-normalised, relative to median of negative controls) (log2 ratio); higher = more viable cells (less compound effect), active = hit call of the paper (over 3 MAD below the median)
Settings: 25 µM; library screen: screen2; EWS-FLI1 expression: low (doxycycline-induced shRNA knockdown); treatment time: 72 h
Out of some 3,200 compounds screened, about 300 (9.4%) showed activity. The full list was thinned out, with actives kept by preference.
// allowed return values: true (1) = active, false (0) = inactive

Known results for compounds:
- compound: "C[C@@H]1C[C@@H]([C@H](O)CC2CC(=O)NC(=O)C2)C(=O)[C@@H](C)C1"
  tgt: "A673/TR/shEF"
  group: "true (1)"
- compound: "O=P1(N(CCCl)CCCl)NCCCO1 (configuration not stated)"
  tgt: "A673/TR/shEF"
  group: "false (0)"
- compound: "O=C(O)CCCc1ccc(N(CCCl)CCCl)cc1"
  tgt: "A673/TR/shEF"
  group: "false (0)"
- compound: "NC(=O)c1cc([N+](=O)[O-])cc([N+](=O)[O-])c1"
  tgt: "A673/TR/shEF"
  group: "false (0)"
- compound: "N#C[C@H](O[C@@H]1O[C@H](CO[C@@H]2O[C@H](CO)[C@@H](O)[C@H](O)[C@H]2O)[C@@H](O)[C@H](O)[C@H]1O)c1ccccc1"
  tgt: "A673/TR/shEF"
  group: "false (0)"
- compound: "CC[C@H]1CN2CCc3cc(OC)c(OC)cc3[C@@H]2C[C@@H]1C[C@H]1NCCc2cc(OC)c(OC)cc21"
  tgt: "A673/TR/shEF"
  group: "true (1)"
- compound: "COc1cc([C@@H]2c3cc4c(cc3[C@H](O)[C@H]3COC(=O)[C@H]23)OCO4)cc(OC)c1OC"
  tgt: "A673/TR/shEF"
  group: "true (1)"
- compound: "C=C(C)[C@H]1Cc2c(ccc3c2O[C@@H]2COc4cc(OC)c(OC)cc4[C@@H]2C3=O)O1"
  tgt: "A673/TR/shEF"
  group: "true (1)"

What was the test verdict on `CC[C@@]1(O)C(=O)OCc2c1cc1n(c2=O)Cc2cc3ccccc3nc2-1` ?
true (1)

Outcome logged for `O=C1C=CC(=O)c2c(O)cccc21` in this assay:
true (1)

What is the recorded call for this compound in the test? `CNNC`
false (0)

Any idea what this test logged for `C[C@@H]1CC[C@@]2(NC1)O[C@H]1C[C@H]3[C@@H]4CC=C5C[C@@H](O)CC[C@]5(C)[C@H]4CC[C@]3(C)[C@H]1[C@@H]2C` ?
false (0)

Numbers sourced from the supplement of paper PMC6089552.
